Assignment: determine reported pIC50 for the given compounds.
# TGT: UniProtKB Q9Y5X9
# Sequence (Q9Y5X9 whole entry): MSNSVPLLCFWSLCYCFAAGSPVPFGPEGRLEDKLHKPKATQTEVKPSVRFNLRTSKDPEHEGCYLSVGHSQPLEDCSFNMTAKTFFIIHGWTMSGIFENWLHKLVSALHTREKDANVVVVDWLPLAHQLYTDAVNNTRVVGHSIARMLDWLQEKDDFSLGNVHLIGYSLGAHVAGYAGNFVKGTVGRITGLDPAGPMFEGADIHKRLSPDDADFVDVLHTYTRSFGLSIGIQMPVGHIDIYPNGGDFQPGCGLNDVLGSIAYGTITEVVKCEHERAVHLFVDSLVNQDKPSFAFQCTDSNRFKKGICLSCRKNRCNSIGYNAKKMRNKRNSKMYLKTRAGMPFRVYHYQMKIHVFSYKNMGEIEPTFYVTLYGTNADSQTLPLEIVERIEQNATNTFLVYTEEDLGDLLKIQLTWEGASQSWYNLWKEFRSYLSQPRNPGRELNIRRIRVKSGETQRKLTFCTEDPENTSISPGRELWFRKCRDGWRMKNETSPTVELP
# EXPERIMENT_SUMMARY: Inhibition of human endothelial lipase overexpressed in HUVEC cells using bis-BD-PC and mono-BD-TG as substrate incubated for 10 mins prior to substrate addition by micelle assay
# Type: cell-based
Bear in mind: pIC50 is minus log10 of a mol/L concentration; give just that figure.

Entry CCCCCCCCCc1ccccc1B(O)O ; pIC50 = 4.96

Consider CC1(C)OB(c2ccc(-c3ccccc3)cc2)OC1(C)C . Its measured pIC50 is 6.00

Noted for CCCCCCCCCc1ccc(B2OC(C)(C)C(C)(C)O2)cc1 : its pIC50 reads 6.00

pIC50 reading for CCCCCc1ccc(B(O)O)cc1 : 6.33

Record CCCCCCCc1ccc(B(O)O)cc1 , field pIC50: 6.49

Value of pIC50 reported for the compound CC1(C)OB(c2ccc(-c3cccs3)cc2)OC1(C)C is 5.80

Memo: CC1(C)OB(c2ccc(-c3ccsc3)cc2)OC1(C)C , reported pIC50: 5.51

pIC50 in this record for CCCCCCCc1ccc(B2OC(C)(C)C(C)(C)O2)cc1 : 5.96

// recorded pIC50 for CCCCCc1cccc(B(O)O)c1 : 4.66

For this compound ( CCCCCCCCCCCc1ccc(B2OC(C)(C)C(C)(C)O2)cc1 ), measured pIC50 is 5.85

---

# TGT: Lipoprotein lipase (Homo sapiens)
# Sequence (P06858 whole entry): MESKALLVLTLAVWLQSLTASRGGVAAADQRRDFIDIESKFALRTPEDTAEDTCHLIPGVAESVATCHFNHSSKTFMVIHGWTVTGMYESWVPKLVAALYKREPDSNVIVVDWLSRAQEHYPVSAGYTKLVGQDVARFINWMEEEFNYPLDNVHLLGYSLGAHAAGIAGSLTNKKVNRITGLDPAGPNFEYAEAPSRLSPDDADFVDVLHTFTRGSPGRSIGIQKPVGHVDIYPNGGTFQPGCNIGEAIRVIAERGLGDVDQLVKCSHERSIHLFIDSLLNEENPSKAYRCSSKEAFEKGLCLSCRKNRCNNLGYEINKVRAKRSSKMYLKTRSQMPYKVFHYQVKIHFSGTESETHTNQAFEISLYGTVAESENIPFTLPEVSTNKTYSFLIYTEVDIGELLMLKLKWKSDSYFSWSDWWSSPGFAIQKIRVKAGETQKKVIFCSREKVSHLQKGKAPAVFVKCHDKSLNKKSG
# EXPERIMENT_SUMMARY: Inhibition of human lipoprotein lipase expressed using recombinant adenovirus using glycerol-tri[9,10(n)-3H]oleate after 1 hr by vesicle assay
MEASURE_NAME: pIC50
Schema: pIC50 number; meaning minus log10 of the concentration expressed in molar units.

So for CC1(C)OB(c2ccc(-c3ccco3)cc2)OC1(C)C , the logged pIC50 turned out to be 5.02

Recorded pIC50 (compound CCCCCc1cccc(B2OC(C)(C)C(C)(C)O2)c1 ): 4.35

# pIC50 of CCCc1ccc(B(O)O)cc1 = 5.10

Lookup result for CCCCCCCc1ccc(B(O)O)cc1 ; measured pIC50: 4.52

The compound listed as CCCCCCCc1ccc(B2OC(C)(C)C(C)(C)O2)cc1 shows pIC50 equal to 4.26

pIC50 for CC1(C)OB(c2ccc(-c3ccsc3)cc2)OC1(C)C is 4.89

Noted for Cc1ccc(B(O)O)cc1 [TOLYL BORONIC ACID] : its pIC50 reads 5.05

Looking up CCCCCc1cccc(B(O)O)c1 , I see its pIC50 listed as 4.30

Just so you know, measured pIC50 for CCCc1ccc(B2OC(C)(C)C(C)(C)O2)cc1 came out at 4.60

Recorded result, CC1(C)OB(c2ccc(-c3ccc(F)cc3)cc2)OC1(C)C , pIC50: 4.26
